Assay: yeast display, Sf9 membrane polyspecificity reagent, FACS + sequencing; frameworks hold sequencing errors
REPORTED_METRIC: polyreactivity (PSR sort gate)

Example cases with answers are listed next.
QVQLVESGGGLVQAGGSLRLSCAASGFIFDSYAMGWYRQAPGKERELVAAITYSGSSTYYADSVKGRFTISRDNAKNTVYLQMNSLKPEDTAVYYCAAVWRYSHLYGYWGQGTQVTVSS | high polyreactivity
QVQLVESGGGVVQAGGSLRLSCAASGRTFKPYAMGWYRQAPGKERELVAAISSGVSTHYADSVKGRFTISRDNAKNTVYLQMNSLKPEDTAVYYCAADYWVNYWFDYWGQGTQVTVSS | low polyreactivity
QVQLVESGGGLVQAGGSLRLSCAASGRTFAWYAMGWYRQAPGKERELVAAISSSGGTTYYADSVKGRFTISRDNAKNTVYLQMNSLKPEDTAVYYCAARPGFWEYWGWWYDRYEYWGQGTQVTVSS | low polyreactivity
QVQLRESGAGGRQPAPEMRGERQYFYWSADGLVSQGPGKEREFDAGIDRGTITNYADSVRGRFTISRDNAKNTVYLQMNSLKPEDTAVYYCAVPAYGDPRSYYWGQGTHVTVSS | high polyreactivity

Ask: Dear colleague, I am looking for the recorded polyreactivity (PSR sort gate) of the following sequence: "QVQLVESGGGLVQAGGSLRLSCAASGSTFYDNAMGWYRQAPGKERELVAAINWSSDTTYYADSVKGRFTISRDNAKNTVYLQMNSLKPEDTAVYYCATDSAYRGYDYWGQGTQVTVSS"
Result: low polyreactivity

Ask: Dear colleague, I am looking for the recorded polyreactivity (PSR sort gate) of the following sequence: "QVQLVESGGGLVQAGGSLRLSCAASGSTFAYYAMGWYRQAPGKESELVAAISSGGSTYYADSVKGRFTISRDNAKNTVYLEMFCLKGDDTAVYYCNKLWVGKFKRYEFGYWGQGTQVTVSS"
Result: low polyreactivity

Values compiled from the nanobody polyreactivity screen of Harvey et al. (2022).
